Origin of measurements: the supplement of paper PMC10065799

# STUDY_TARGET: Fyn (UniProt P06241)
# Sequence (P06241 whole entry, looked up): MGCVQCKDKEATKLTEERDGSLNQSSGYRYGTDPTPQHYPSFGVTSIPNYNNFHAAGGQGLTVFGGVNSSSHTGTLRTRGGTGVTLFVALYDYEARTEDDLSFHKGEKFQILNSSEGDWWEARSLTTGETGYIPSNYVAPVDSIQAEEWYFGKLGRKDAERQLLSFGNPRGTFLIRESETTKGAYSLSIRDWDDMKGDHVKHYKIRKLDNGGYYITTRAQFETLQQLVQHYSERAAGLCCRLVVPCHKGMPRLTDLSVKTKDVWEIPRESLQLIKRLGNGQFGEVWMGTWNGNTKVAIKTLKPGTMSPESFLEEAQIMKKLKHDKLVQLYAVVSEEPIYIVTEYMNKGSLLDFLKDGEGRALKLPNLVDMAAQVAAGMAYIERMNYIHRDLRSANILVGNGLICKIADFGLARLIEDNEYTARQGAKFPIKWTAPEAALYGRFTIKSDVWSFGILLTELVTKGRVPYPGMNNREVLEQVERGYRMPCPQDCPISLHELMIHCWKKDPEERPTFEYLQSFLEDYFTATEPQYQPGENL
# TEST_SUMMARY: phosphorylation enrichment, bacterial display (enrichment ratio); higher = better substrate or ligand; peptides without Tyr show the background;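 also: 11-residue human phosphosite peptides and single-mutation variants displayed on the E. coli surface, counted by deep sequencing, each peptide's frequency after selection divided by its frequency in the unselected input library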;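 also: frequency after pTyr selection over input frequency; kinase dosed for 20-30% of maximal phosphorylation in three min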
EXPERIMENTAL_READOUT: phosphorylation enrichment
Answer with the value's number alone.

Look up phosphorylation enrichment with Fyn (UniProt P06241) for this sequence: TGGLEYIVPLM [CLCN4_Y548] 0.436

Look up phosphorylation enrichment with Fyn (UniProt P06241) for this sequence: LWKWRYEELKE [CCDC102B_Y299_K298R] 0.629

Look up phosphorylation enrichment with Fyn (UniProt P06241) for this sequence: PTDSVYVMPTV [MYO7A_Y1668] 8.58

Look up phosphorylation enrichment with Fyn (UniProt P06241) for this sequence: RLMLQYDAVVN [SLC25A32_Y152] 0.57

Look up phosphorylation enrichment with Fyn (UniProt P06241) for this sequence: KDPPDYKFQPR [SOX9_Y172_H169P_YF] 0.439

Look up phosphorylation enrichment with Fyn (UniProt P06241) for this sequence: AHPIIYDIIEA [PYKtide_D_2014] 7.74

Look up phosphorylation enrichment with Fyn (UniProt P06241) for this sequence: AKIDGYIISYR 0.37

Look up phosphorylation enrichment with Fyn (UniProt P06241) for this sequence: ELTTCYRKKCC [CCBE1_Y70] 0.444

Look up phosphorylation enrichment with Fyn (UniProt P06241) for this sequence: KFDLMYAKLAF [TUBA1A_Y399_R402L] 1.26
